Experimental System: yeast succinate dehydrogenase (Saccharomyces cerevisiae, UniProt P21801+P33421+P37298+Q00711)
Construct: gene SDH1
Sequence (Q00711 29-640): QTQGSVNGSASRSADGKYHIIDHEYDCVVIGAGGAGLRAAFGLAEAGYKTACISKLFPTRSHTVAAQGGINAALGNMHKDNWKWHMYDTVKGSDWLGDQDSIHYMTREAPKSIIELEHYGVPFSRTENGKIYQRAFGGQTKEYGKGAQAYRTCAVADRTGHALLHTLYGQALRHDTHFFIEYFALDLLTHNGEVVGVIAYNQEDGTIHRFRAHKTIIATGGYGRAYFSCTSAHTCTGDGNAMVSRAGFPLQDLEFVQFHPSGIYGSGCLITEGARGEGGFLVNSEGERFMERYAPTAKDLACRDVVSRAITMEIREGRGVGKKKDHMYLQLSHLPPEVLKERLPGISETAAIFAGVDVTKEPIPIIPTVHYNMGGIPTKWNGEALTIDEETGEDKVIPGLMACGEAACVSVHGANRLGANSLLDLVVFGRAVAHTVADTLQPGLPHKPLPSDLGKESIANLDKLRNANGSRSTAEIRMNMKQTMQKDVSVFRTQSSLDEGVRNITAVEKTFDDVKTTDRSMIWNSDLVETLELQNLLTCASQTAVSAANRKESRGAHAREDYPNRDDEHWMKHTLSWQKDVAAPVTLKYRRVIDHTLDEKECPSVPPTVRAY
Sequence (P21801 21-266): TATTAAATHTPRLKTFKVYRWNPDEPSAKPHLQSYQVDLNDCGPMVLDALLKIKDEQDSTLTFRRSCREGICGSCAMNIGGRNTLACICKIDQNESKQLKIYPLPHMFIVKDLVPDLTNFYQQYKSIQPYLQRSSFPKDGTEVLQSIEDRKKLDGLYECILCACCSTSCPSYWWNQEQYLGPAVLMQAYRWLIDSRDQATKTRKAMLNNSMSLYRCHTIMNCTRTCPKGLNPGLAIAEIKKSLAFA
Sequence (P33421 51-198): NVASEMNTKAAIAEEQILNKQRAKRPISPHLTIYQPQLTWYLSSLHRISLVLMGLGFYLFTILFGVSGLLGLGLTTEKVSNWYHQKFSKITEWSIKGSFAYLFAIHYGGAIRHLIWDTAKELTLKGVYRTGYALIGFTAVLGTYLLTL
Sequence (P37298 32-181): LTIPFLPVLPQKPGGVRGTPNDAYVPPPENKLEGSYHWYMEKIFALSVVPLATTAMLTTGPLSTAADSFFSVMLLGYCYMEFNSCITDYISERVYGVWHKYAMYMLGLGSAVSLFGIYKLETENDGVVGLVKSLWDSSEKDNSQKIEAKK
Protocol Description: inhibition of yeast succinate dehydrogenase activity (Fig. S2)
Type: cell-based
Measurement Type: IC50

Smiles Str	Test Result
CC(C)=CCC/C(C)=C/CC/C(C)=C/Cc1c(O)c2ccccc2oc1=O	~100 nM
